All figures here come from ChEMBL document CHEMBL6177963.

- assay.comment: Inhibition of SARS-CoV-2 MPro using Dabcyl-KTSAVLQ/SGFRKME- (Edans) as substrate by FRET assay
- Design: species or system Severe acute respiratory syndrome coronavirus 2
experimental.readout: IC50 (nM)
Please give a number only; it is taken to be in nM.

Req: Which IC50 reading was recorded for the molecule N#Cc1ccc2nc(N3C(=O)CSC3c3c(F)cccc3Cl)sc2c1 (stereo unspecified) ?
Resp: 10

----------
- target.or.system: Replicase polyprotein 1ab (Severe acute respiratory syndrome coronavirus 2)
- assay.comment: Binding affinity to SARS-CoV-2 PLpro assessed as thermal stability by measuring melting temperature of half of the proteins unfolded by differential scanning fluorimetry (DSF) (reference value: 45.79 degC)
experimental.readout: Tm (°C)
Please give a number only; it is taken to be in °C.

Req: Which Tm reading was recorded for the molecule `CCOC(=O)c1sc(NNC(=O)/C=C/c2ccccc2)nc1C` ?
Resp: 41.5

Req: Next molecule: `CCOC(=O)c1sc(NNC(=O)c2cccs2)nc1C`
Resp: 41.1

Req: Next molecule: `CCOC(=O)c1sc(NNC(=O)c2ccc(Br)cc2)nc1C`
Resp: 41.5

Req: Next molecule: `CCOC(=O)c1sc(NNC(=O)c2ccc(Cl)cc2)nc1C`
Resp: 44.7

Req: Next molecule: `O=C(NNc1nc(-c2ccc(Cl)cc2)cs1)c1ccc(Cl)cc1`
Resp: 47.5

Req: Next molecule: `Cc1ccc(-c2csc(NNC(=O)c3ccc(F)cc3)n2)cc1`
Resp: 47.1

Req: Next molecule: `O=C(NNc1nc(-c2ccc(Br)cc2)cs1)c1ccc(F)cc1`
Resp: 45.9

Req: Next molecule: `Cc1ccc(C(=O)NNc2nc(-c3ccc(Cl)cc3)cs2)cc1`
Resp: 45.8

Req: Next molecule: `Oc1ccc(/C=N/Nc2nc(-c3ccc(Cl)cc3)cs2)cc1`
Resp: 44.3

Req: Next molecule: `Cc1ccc(-c2csc(NNC(=O)c3ccc([N+](=O)[O-])cc3)n2)cc1`
Resp: 41.4

Req: Next molecule: `CCOC(=O)c1sc(NNC(=O)c2ccc([N+](=O)[O-])cc2)nc1C`
Resp: 41.5

Req: Next molecule: O=c1c2ccccc2[se]n1-c1ccccc1 [EBSELEN]
Resp: 45.4

Req: Next molecule: `O=C(NNc1nc(-c2ccc(Cl)cc2)cs1)c1ccc(F)cc1`
Resp: 47.1

----------
- assay.comment: Cytotoxicity against human HEK293 cells assessed as cell viability measured after 48 hrs by MTT assay
- Format: toxicity, cell-based
What IC50 at 48 h was measured for each of the following?
Please give a number only; it is taken to be in µM.

Req: Which IC50 at 48 h reading was recorded for the molecule `CCOC(=O)c1sc(NNC(=O)c2ccc(Cl)cc2)nc1C` ?
Resp: 45.5

Req: Next molecule: `O=C(NNc1nc(-c2ccc(Cl)cc2)cs1)c1ccc(F)cc1`
Resp: 41.2

Req: Next molecule: `Cc1ccc(-c2csc(NNC(=O)c3ccc(F)cc3)n2)cc1`
Resp: 25.3

Req: Next molecule: `Oc1ccc(/C=N/Nc2nc(-c3ccc(Cl)cc3)cs2)cc1`
Resp: 194

Req: Next molecule: `CCOC(=O)c1sc(NNC(=O)/C=C/c2ccccc2)nc1C`
Resp: 180

Req: Next molecule: `O=C(NNc1nc(-c2ccc(Br)cc2)cs1)c1ccc(F)cc1`
Resp: 10.5

Req: Next molecule: `Cc1ccc(-c2csc(NNC(=O)c3ccc([N+](=O)[O-])cc3)n2)cc1`
Resp: 6.69

Req: Next molecule: `O=C(NNc1nc(-c2ccc(Cl)cc2)cs1)c1ccc(Cl)cc1`
Resp: 14

Req: Next molecule: `CCOC(=O)c1sc(NNC(=O)c2cccs2)nc1C`
Resp: 45.8

Req: Next molecule: `Cc1ccc(C(=O)NNc2nc(-c3ccc(Cl)cc3)cs2)cc1`
Resp: 41.1

Req: Next molecule: `CCOC(=O)c1sc(NNC(=O)c2ccc([N+](=O)[O-])cc2)nc1C`
Resp: 25.9

Req: Next molecule: `COc1cccc2c1C(=O)c1c(O)c3c(c(O)c1C2=O)C[C@@](O)(C(=O)CO)C[C@@H]3O[C@H]1C[C@H](N)[C@H](O)[C@H](C)O1`
Resp: 8.23

Req: Next molecule: `CCOC(=O)c1sc(NNC(=O)c2ccc(Br)cc2)nc1C`
Resp: 219
